INHIBITION values for the compounds below.
test system: Plasmodium berghei; assay: Screen against P. berghei liver stage (PbLuc), transformed with Luciferase, at 2uM; format: functional, HepG2; conditions: tested at 2 uM
Among all 68,000 compounds or so, about 2,700 (4%) showed an effect of 50% or more. The list comes from a sample in which strong results are over-represented; it also holds close analogues and randomly drawn compounds.
Measurement Kind: INHIBITION (%)

> print(dat)
                                   compound  number
1  Cc1cc(C)n(CC(C)NC2CCN(Cc3cccc(O)c3)CC2)n1 (stereo unspecified)   32.71
2   CN(Cc1ccccc1)C(=O)Cn1nc(N2CCSCC2)ccc1=O   22.88
3  Cn1cncc1-c1nnc([C@H]2CCN(CC(C)(C)C)C2)o1  -23.78
4  O=C(c1cscn1)N1CCCC2(CCN2Cc2cccc(F)c2)C1 (stereo unspecified)   37.33
5  C[S+]([O-])CCNC(=O)N1CCSC2(CCCCC2)C1 (stereo unspecified)  -66.38
6  CC(Cn1cncn1)NC1CCN(Cc2cccc(O)c2)CC1 (stereo unspecified)   -6.77

* * *

system: Plasmodium berghei; assay: Screen against P. berghei liver stage (PbLuc), transformed with Luciferase, at 2uM; type: functional, HepG2; details: tested at 2 uM
Hit rate of the full screen: of about 68,000 compounds, about 2,700 (4%) showed an effect of 50% or more. Many of the other results were omitted from the sample, so strong results are more common in it than they were.
Assign class by INHIBITION: not lower than 20% means y; lower than 20% means n.

> print(dat)
                                    compound  assigned.category
 1   Cc1occc1C(=O)N1CCC2(CCN(Cc3nccs3)CC2)C1                  n
 2  CC(C)CN1CCN(C(=O)c2[nH]nnc2Nc2ccccc2F)CC1                  n
 3  CC(=O)N1N=C(c2ccccc2)OC1C(=O)NCCc1ccc(C)cc1 (centres undefined)                  y
 4  CC(Cc1c(F)cccc1F)NC(=O)CSCC(N)=O (centres undefined)                  n
 5    O=C(NCC(F)(F)F)c1ccc(-c2ccco2)[nH]c1=O                  n
 6  CC(=O)N[C@@H]1CN(C(=O)c2cc(C)oc2C)C[C@H]1c1ccc(C)o1                  n
 7  CCN(CCO)C[C@@H]1CN(c2cc(C(F)(F)F)cc(C)n2)C[C@@H]1CO                  n
 8         COc1ccc(CCN2CC(n3nc(C)cc3C)C2)cc1                  y
 9         CN(C)C(=O)c1cnc2n1CCN(Cc1ccsc1)C2                  y
10   O=C(Cc1nc(-c2ccncc2)n[nH]1)NCCCN1CCOCC1                  n
11  CN1CCN(CC(NCc2ccc(F)c(F)c2)c2ccccc2)CC1 (centres undefined)                  n
12  CN1CCN(CC(NCc2ccc(F)cc2)c2ccccc2)CC1 (centres undefined)                  y
13   Cc1occc1C(=O)N1CCC2(CCN(Cc3nccs3)C2)CC1                  n
14  Cc1cc(C(F)(F)F)cc(N2C[C@@H](CN(C)CCO)[C@@H](CO)C2)n1                  y
15  O=C(c1n[nH]c(=O)c2ccccc12)N1CCC(O)(CN2CCOCC2)C1 (centres undefined)                  n
16  Cn1ccnc1CN(Cc1cccnc1)CC1CCCO1 (centres undefined)                  y
17  CC(C)CC(=O)N1CCCC1c1cc(CO)[nH]n1 (centres undefined)                  y
18  CNC(=O)NC(=O)CSC(C)c1ccccc1F (centres undefined)                  y
19  Cc1cc(CNCC2Cn3nnc(C)c3CO2)oc1C (centres undefined)                  y
20  Cc1ocnc1C(=O)N1CC[C@@H](O)[C@@H](O)[C@H](N2CCC(F)(F)CC2)C1                  n
21  CC1c2ncc(Cn3cncn3)n2CCN1C(=O)Cc1cccs1 (centres undefined)                  y
22  CCOCc1cnc2n1CCN(C(=O)Cc1cccs1)C2C (centres undefined)                  n
23  COCCNC(=O)C1CN(Cc2ccncc2)Cc2ccnn2C1 (centres undefined)                  n
24  CNS(=O)(=O)CC(=O)N1CCC(c2cc3ccccc3[nH]2)CC1                  n
